Assayed system: HLA-B*4501 (human)
Procedure details: competitive inhibition assay, purified HLA
Condition summary: remark: other sources report otherwise
pIC50: −log10 of the molar value.
Endpoint label: pIC50

>  <Binder>
NELSVDHSDPV […]

>  <Reported>
7.11

$$$$
